Molecular target: pERK1/2 (Thr202/Tyr204), NCI-1H358 (KRAS G12C) (Homo sapiens, UniProt P01116, G12C)
Construct: pERK1/2 HTRF read-out
Sequence (P01116 1-188 isoform P01116-2 G12C): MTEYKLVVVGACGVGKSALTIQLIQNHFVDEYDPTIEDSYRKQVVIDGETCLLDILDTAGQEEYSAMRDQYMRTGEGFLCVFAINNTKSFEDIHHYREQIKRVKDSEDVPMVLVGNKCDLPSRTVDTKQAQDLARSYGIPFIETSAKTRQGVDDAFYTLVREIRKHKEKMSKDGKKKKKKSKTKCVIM
Assay: Assay of intracellular pERK1/2 (Thr202/Tyr204) phosphorylation in NCI-H358 cells (KRAS G12C)
Type: cell-based
Conditions: pERK1/2, 2 days, read-out: NCI-H358 (KRAS G12C) IC50
pIC50: −log10 of the molar value.
test.readout: pIC50

[[record]]
compound = "Cc1cc2[nH]nc(C)c2c(-c2nc3c4c(nc(OC[C@@]56CCCN5C[C@H](F)C6)nc4c2F)N(C(C)c2cccnc2N)[C@@H](C)CO3)c1C(F)(F)F (some centres unmarked) [Compound 378]"
recorded_number = 9.70

[[record]]
compound = "Cc1cc(N)cc(-c2nc3c4c(nc(OC[C@@]56CCCN5C[C@H](F)C6)nc4c2F)N(C(C)c2cccnc2N)CCO3)c1C(F)(F)F (some centres unmarked) [Compound 59]"
recorded_number = 9.70

[[record]]
compound = "Cc1c(F)c(N)cc(-c2nc3c4c(nc(OC[C@@]56CCCN5C[C@H](F)C6)nc4c2F)N(C(C)c2cccnc2N)CCO3)c1C(F)(F)F (some centres unmarked) [Compound 120]"
recorded_number = 9.52


---

Molecular target: pERK1/2 (Thr202/Tyr204), NCI-1H441 (KRAS G12V) (Homo sapiens, UniProt P01116, G12V)
Construct: pERK1/2 HTRF read-out
Sequence (P01116 1-188 isoform P01116-2 G12V): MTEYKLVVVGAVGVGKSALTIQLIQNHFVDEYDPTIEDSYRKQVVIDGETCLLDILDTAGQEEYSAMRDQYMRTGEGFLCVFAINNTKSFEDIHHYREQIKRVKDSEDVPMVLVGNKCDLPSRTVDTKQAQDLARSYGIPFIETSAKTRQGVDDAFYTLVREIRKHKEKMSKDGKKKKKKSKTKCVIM
Assay: Assay of intracellular pERK1/2 (Thr202/Tyr204) phosphorylation in NCI-H441 cells (KRAS G12V)
Format: cell-based
Details: pERK1/2, 2 days, read-out: NCI-H441 (KRAS G12V) IC50
pIC50: −log10 of the molar value.
test.readout: pIC50

[[record]]
molecule = "CC(c1cccnc1N)N1CCOc2nc(-c3cc(N)ccc3C(F)(F)F)c(F)c3nc(OC[C@@]45CCCN4C[C@H](F)C5)nc1c23 (single isomer, unassigned) [Compound 54]"
test_readout = "pIC50"
recorded_number = 8.70

[[record]]
molecule = "Cc1nc(N)cc(-c2nc3c4c(nc(OC[C@@H]5CCCN5C)nc4c2F)N(C(C)c2cccnc2N)CCO3)c1C(F)(F)F (stereo partly shown) [Compound 97]"
test_readout = "pIC50"
recorded_number = 7.44

[[record]]
molecule = "Cc1c(F)c(N)cc(-c2nc3c4c(nc(OC[C@@]56CCCN5CC(=C(F)F)C6)nc4c2F)N(C(C)c2cccnc2N)CCO3)c1C(F)(F)F (stereo partly shown) [Compound 243]"
test_readout = "pIC50"
recorded_number = 9.30

[[record]]
molecule = "Cc1nc(N)cc(-c2nc3c4c(nc(OC[C@@]56CCCN5C[C@H](F)C6)nc4c2F)N(C(C)c2cccnc2N)CCO3)c1C(F)(F)F (stereo partly shown) [Compound 83]"
test_readout = "pIC50"
recorded_number = 8.52

[[record]]
molecule = "CC(c1cccnc1N)N1CCOc2nc(-c3c(C(F)(F)F)ccc4[nH]ncc34)c(F)c3nc(OC[C@@H]4CCN4CC(F)F)nc1c23 (stereo partly shown) [Compound 25]"
test_readout = "pIC50"
recorded_number = 7.85

[[record]]
molecule = "CC(c1cccnc1N)N1c2nc(OC[C@@]34CCCN3C[C@H](F)C4)nc3c(F)c(-c4c(C(F)(F)F)ccc5c4CCCN5)nc(c23)OC[C@@H]1C (single isomer, unassigned; diastereomer 1) [Compound 338]"
test_readout = "pIC50"
recorded_number = 7.31

[[record]]
molecule = "CC(c1cccnc1N)N1CCOc2nc(-c3cc(N)c(F)c(Cl)c3C(F)(F)F)c(F)c3nc(OC[C@@]45CCCN4C[C@H](F)C5)nc1c23 (stereo partly shown) [Compound 168]"
test_readout = "pIC50"
recorded_number = 9.40

[[record]]
molecule = "Cc1c(F)c(N)cc(-c2nc3c4c(nc(OC[C@@]56CCCN5C[C@@H](F)C6)nc4c2F)N(C(C)c2cccnc2N)CCO3)c1C(F)(F)F (stereo partly shown) [Compound 165]"
test_readout = "pIC50"
recorded_number = 8.52


P = Cc1cc(O)cc(-c2nc3c4c(nc(OC[C@@]56CCCN5C[C@H](F)C6)nc4c2F)N(C(C)c2cccnc2N)CCO3)c1C1CC1 (stereo partly shown) [Compound 159]
Q = CC(c1cccnc1N)N1CCOc2nc(-c3cc(N)c(F)c(Cl)c3C(F)(F)F)c(F)c3nc(OC[C@@]45CCCN4CC4(CC4(F)F)C5)nc1c23 (single isomer, unassigned) [Compound 227]
Hey, which is lower on measured pIC50, P or Q ? // output: label of the selected item
P

1 = Cc1cc2[nH]ncc2c(-c2nc3c4c(nc(OC[C@@]56CCCN5C[C@H](F)C6)nc4c2F)N(C(C)c2cccnc2N)[C@@H](C)CO3)c1Cl (stereo partly shown) [Compound 313]
2 = Cc1cc(N)cc(-c2nc3c4c(nc(OC[C@@]56CCCN5C[C@H](F)C6)nc4c2F)N(C(C)c2cccnn2)CCO3)c1C(F)(F)F (stereo partly shown) [Compound 121]
Of the two listed items, which has the higher pIC50? First: 1 Second: 2 // output: label of the selected item
1
(1: 9.00, 2: 7.01)
